# Tested on: ACHN
# Protocol description: NCI tumour cell line growth inhibition, 48 h
Calls of active or inactive are those of the source. Rule as the data show it: active = GI50 up to about 1.1 µM and inactive = higher.
Lab note: assign the record to one of Yes (active), No (inactive)

Molecule	Label class
COc1ccc2c(c1)-c1nc(=S)n(CCCN(C)C)c3ccc([N+](=O)[O-])c(c13)N2	Yes
C=CCNC1=NC(=O)C(CC(=O)Nc2ccc([N+](=O)[O-])cc2[N+](=O)[O-])S1 (configuration not stated)	No
O=C(OCC1CO1)c1cccs1 (configuration not stated)	No
CCCCCCCc1c(Cl)nc(Cl)nc1Cl	No
CN(C)/C=N/c1c2c(nc3ccccc13)CCCC2	No

Task: Hi, do you know how C[N+]1(CCC[N+]2(C)CC3C4C=CC(CC4)C3C2)CCOCC1 (configuration not stated) came out in this test?
Result: No

Task: Hi, do you know how COc1ccc2c(c1)[n+]([O-])c(-c1ccc(C)cc1)c(N)[n+]2[O-] came out in this test?
Result: No

---

# Tested on: U-251
# Protocol description: NCI tumour cell line growth inhibition, 48 h
The source made the active and inactive calls. Cut-off read from the data, not from the text of the source: active = GI50 up to about 1.1 µM and inactive = higher.
Reported GI50 values follow for various molecules

Field: example entries. Status: answers known.
Molecule	GI50
O=C1Nc2ccccc2/C1=N/N=c1\cccc[nH]1	19 µM (inactive)
Cc1c(N2C(=O)/C(=C/C=C/c3ccccc3)N=C2c2ccccc2)c(=O)n(-c2ccccc2)n1C	16.8 µM (inactive)
O=[N+]([O-])c1ccc(-n2nnc(C3=NCCN3)c2-c2ccc(Cl)cc2)cc1	> 100 µM (inactive)

Read the next record carefully.
Task: Please report the measured GI50 for C=CCOc1cccc(C2(O)c3ccccc3C3=NCCCN32)c1 (centres undefined) tested on U-251.
Result: 15.6 µM (inactive)

---

Reported GI50 values follow for various molecules
# Test system: OVCAR-4
# Protocol description: NCI tumour cell line growth inhibition, 48 h
Activity calls are given as the source filed them. No stated cut-off is given here; in the data, active = GI50 up to about 1.1 µM and inactive = higher.

Molecule	System under test	Recorded measurement
COC(=O)CCCCC/C(=C\C(=O)C(Cl)(Cl)Cl)OC	OVCAR-4	19.5 µM (inactive)
Nc1ncnc2c(C3OC(CO)C(O)C3O)scc12 (stereo not drawn)	OVCAR-4	0.0468 µM (active)

Task: Please report the measured GI50 for Nc1cccc(/C=C/CN2CCN(CCOC(c3ccccc3)c3ccccc3)CC2)c1 tested on OVCAR-4.
Result: 13.2 µM (inactive)

Task: Please report the measured GI50 for CCC(=C(C#N)C#N)c1cc(OC)c(OC)c(OC)c1 tested on OVCAR-4.
Result: > 100 µM (inactive)

Task: Please report the measured GI50 for COc1cc(/C=C/C(=O)c2cccc3ccccc23)cc(OC)c1OC tested on OVCAR-4.
Result: 6.41 µM (inactive)

Task: Please report the measured GI50 for C[C@]12CC[C@H](O)C[C@@H]1CC[C@@H]1[C@@H]2CC[C@]2(C)[C@@H](C3=CC(=O)OC3)CC[C@]12O tested on OVCAR-4.
Result: 2.08 µM (inactive)

Task: Please report the measured GI50 for CC(C)(C)OC(=O)N1N=NC2C3OC(CC3=O)C21 (stereo not drawn) tested on OVCAR-4.
Result: > 10 µM (inactive)

---

# System: MDA-MB-435
# Protocol description: NCI tumour cell line growth inhibition, 48 h
Active and inactive are the calls of the source. Rule as the data show it: active = GI50 up to about 1.1 µM and inactive = higher.
Experimental readout: GI50

Task: Please report the measured GI50 for CSC1=C(C(=O)Nc2ccc(C)cc2)C(N)=NC1=O tested on MDA-MB-435.
Result: > 100 µM (inactive)

Task: Please report the measured GI50 for NC1CNC(=O)c2cscc21 (centres undefined) tested on MDA-MB-435.
Result: > 100 µM (inactive)

Task: Please report the measured GI50 for c1nc(OCC2CCCCC2)c2nc[nH]c2n1 tested on MDA-MB-435.
Result: 46.7 µM (inactive)
